assay: Quantitative High-Throughput drug screen in 47 multiple myeloma cell lines against the NCATS MIPE library collection: KHM11_PLB cell viability assay (AID 1918962); details: KHM11 myeloma cell viability, CellTiter-Glo ATP luminescence, 48 h; series mostly up to 45.8 µM; also: nearly all actives have a fitted effect of over 35% in size
Inconclusive results are not listed. The source made the active and inactive calls. Calls follow the shape of the dose curve; as a rule, active = well fitted cell-killing curve with a large enough effect; inconclusive = small, poorly fitted or top-dose-only effect, or effect the other way; inactive = no such curve, though single readings can be large or run the other way.
Assign a class; possible classes are YES = active, NO = inactive

Answered examples (2):
| Entry Smiles | Assigned Category |
| --- | --- |
| C[C@H]1[C@H](NC(=O)C(=NOC(C)(C)C(=O)O)c2csc(N)n2)C(=O)N1S(=O)(=O)O | NO |
| Cn1c(N2CCCCS2(=O)=O)nc(C(=O)NCc2ccc(F)cc2)c(O)c1=O | NO |

Ask | For O=C(O)c1ccc(-c2cc3cccnc3c(-c3ccc4nonc4c3)n2)cc1 , what call appears in the results of this test?
Reply | YES
